src = PubChem BioAssay

Examples of compounds with documented composite z-score follow.
method_description: small-molecule binders of probe aInhba, primary screen, biochemical, small-molecule microarray, 635/667 nm fluorescence (AID 1148);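 note: score merges 667nm spot fluorescence with signal-to-noise for antibody binding to printed compounds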
experimental_setup: higher = more signal
Reply briefly: the number, and no unit.

Some compounds with known composite z-score results, for comparison:
| compound | composite z-score |
| --- | --- |
| COc1ccc(O[C@H]2C=C[C@@H](c3ccccc3)O[C@@H]2CON=C[C@@H](C)[C@H](OCc2ccccc2)C(C)C)cc1 | -0.21 |
| CC(C)=C1C(=O)C(c2ccccc2)=C2CN3C(=O)N(CCc4ccccc4)C(=O)[C@]3(Cc3ccc(F)cc3)[C@H]21 | 0.205 |
| CN(C)CCCNC(=O)[C@@H]1c2ccccc2C(=O)N(Cc2ccccc2)[C@H]1c1ccc(CO)cc1 | -0.128 |
| CCOC(=O)[C@H](CC(C)C)NC(=O)CCC1CC(OC(=O)NCc2cccc3ccccc23)CC2(CCCC(COC(=O)NCCN3CCOCC3)O2)O1 (some centres not stated) | -0.0494 |
| C#CCCCON=C1C[C@@H](O)[C@@H](O)[C@@H]2[C@@H]3C(=O)N([C@@H](C)c4ccccc4)C(=O)[C@@H]3CC[C@H]12 | -0.128 |

Task item: Suppose we examine the compound `C=CC[C@]1(C(=O)NCc2ccccc2)N=C(c2ccc(OCCCO)cc2)O[C@H]1c1ccccc1` ; what composite z-score value has been reported?
Reply: -0.003

Task item: Consider the compound `O=C1C2=CC[C@H]3C(=O)N(Cc4ccc5c(c4)OCO5)C(=O)[C@H]3[C@H]2[C@H](O)[C@@H]2O[C@H]12` and give its measured composite z-score.
Reply: -0.0933

====

method_description: FRG1 promoter luciferase signal modulators, primary screen, FRG1 inhibition for FSHD, cell-based, C2C12 myotubes, firefly/Renilla luciferase, luminescence (AID 1084)
experimental_setup: higher = more signal, called active from +8 up or from −8 down
Let's look at some molecules and their measured z-score.
Please reply with the number alone, leaving off any unit.

# annotated cases, reported z-score shown
| molecule | attribute_measured | test_result |
| --- | --- | --- |
| CCOC(=O)CCN1C(=O)[C@H]2[C@H]3[C@H](O)[C@H](O)CC(=NOCc4ccccc4)[C@@H]3CC[C@H]2C1=O | z-score | -0.48 |
| CCOc1ccc(N2C(=O)/C(=C/C=C/c3ccccc3OC)S(=O)(=O)C2c2cccc([N+](=O)[O-])c2)cc1 (configuration not stated) | z-score | -1.75 |
| CCOC(=O)C[C@H]1[C@H](OC(=O)c2ccc(C(=O)c3ccccc3)cc2)[C@@H](NC(=O)c2ccc(-c3ccccc3)cc2)c2cc(OCCCO)ccc2N1C(=O)c1ccc2ccccc2n1 | z-score | 0.0728 |
| COc1ccc(O[C@H]2C=C[C@@H](c3ccccc3)O[C@@H]2COC(=O)CCC(C)=NOC[C@@H](C)[C@H](OCc2ccccc2)C(C)C)cc1 | z-score | 0.696 |
| CCOC(=O)[C@H](CC(C)C)NC(=O)CCC1CC(OC(=O)NCc2cccc3ccccc23)CC2(CCCC(COC(=O)NCCc3ccccc3OC)O2)O1 (some centres not stated) | z-score | 0.0171 |
| Cc1ccc(S[C@]2(C(=O)NCC(F)(F)F)CC(=O)N(Cc3ccccc3Cl)[C@@H]2c2ccc(CO)cc2I)cc1 | z-score | -1.13 |

Note: attention shifts to another entry.
Task item: Return reported z-score; argument: `COCC(=C=CC[C@@H](O)c1ccccc1OCCO)CCO`
Reply: 0.0373
